Tested on: PDC 899932-113-R3-J6 complex spheroid viability;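 note: spheroids exposed to agents for seven days before readout; 100% = DMSO vehicle control wells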
Assay: Anticancer human tumor 899932-113-R3-J6-PDC patient-derived melanoma cell line growth inhibition [RAS]
Conditions: second compound 0.003 µM; first compound 0.1 µM; active compounds read low
metric name: viability, T/C (%)

compound	observed
CCN1CCN(Cc2ccc(Nc3ncc(F)c(-c4cc(F)c5nc(C)n(C(C)C)c5c4)n3)nc2)CC1 + CCn1c(-c2cccnc2C(C)OC)c2c3cc(ccc31)N1CCOC(CC(NC(=O)C(C(C)C)N(C)C(=O)C3(F)CCN(C(=O)C#CC(C)(C)N(C)C)CC3)C(=O)N3CCCC(N3)C(=O)OCC(C)(C)C2)C1	84.2
C[C@@H](NC(=O)c1ncnc(N)c1Cl)c1ncc(C(=O)Nc2cc(C(F)(F)F)c(Cl)cn2)s1 + CCn1c(-c2cccnc2C(C)OC)c2c3cc(ccc31)N1CCOC(CC(NC(=O)C(C(C)C)N(C)C(=O)C3(F)CCN(C(=O)C#CC(C)(C)N(C)C)CC3)C(=O)N3CCCC(N3)C(=O)OCC(C)(C)C2)C1	125
C=CC(=O)N1CCN(c2nc(OCC3CCCN3C)nc3c(F)c(-c4nc(N)cc(C)c4C(F)(F)F)c(Cl)cc23)C(C)C1 (stereo not given) + CCn1c(-c2cc(N3CCN(C)CC3)cnc2C(C)OC)c2c3cc(ccc31)-c1csc(n1)CC(NC(=O)C1CC1C)C(=O)N1CCCC(N1)C(=O)OCC(C)(C)C2	37.7
CC(C)n1nc(-c2ccc3oc(N)nc3c2)c2c(N)ncnc21 + CCn1c(-c2cc(N3CCN(C)CC3)cnc2C(C)OC)c2c3cc(ccc31)-c1csc(n1)CC(NC(=O)C1CC1C)C(=O)N1CCCC(N1)C(=O)OCC(C)(C)C2	18.6
CCN1CCN(Cc2ccc(Nc3ncc(F)c(-c4cc(F)c5nc(C)n(C(C)C)c5c4)n3)nc2)CC1 + CCn1c(-c2cc(N3CCN(C)CC3)cnc2C(C)OC)c2c3cc(ccc31)-c1csc(n1)CC(NC(=O)C1CC1C)C(=O)N1CCCC(N1)C(=O)OCC(C)(C)C2	30.1
C=CC(=O)N1CCN(c2nc(OCC3CCCN3C)nc3c(F)c(-c4nc(N)cc(C)c4C(F)(F)F)c(Cl)cc23)C(C)C1 (stereo not given) + CCn1c(-c2cccnc2C(C)OC)c2c3cc(ccc31)N1CCOC(CC(NC(=O)C(C(C)C)N(C)C(=O)C3(F)CCN(C(=O)C#CC(C)(C)N(C)C)CC3)C(=O)N3CCCC(N3)C(=O)OCC(C)(C)C2)C1	108
C=CC(=O)Nc1cc(Nc2nccc(-c3cn(C)c4ccccc34)n2)c(OC)cc1N(C)CCN(C)C + CCn1c(-c2cc(N3CCN(C)CC3)cnc2C(C)OC)c2c3cc(ccc31)-c1csc(n1)CC(NC(=O)C1CC1C)C(=O)N1CCCC(N1)C(=O)OCC(C)(C)C2	33.8
CC(=O)OC12COC1CC(O)C1(C)C(=O)C(O)C3=C(C)C(OC(=O)C(O)C(NC(=O)OC(C)(C)C)c4ccccc4)CC(O)(C(OC(=O)c4ccccc4)C21)C3(C)C (stereo not given) + CCn1c(-c2cccnc2C(C)OC)c2c3cc(ccc31)N1CCOC(CC(NC(=O)C(C(C)C)N(C)C(=O)C3(F)CCN(C(=O)C#CC(C)(C)N(C)C)CC3)C(=O)N3CCCC(N3)C(=O)OCC(C)(C)C2)C1	37.1
CC(C)NCC(C(=O)N1CCN(c2ncnc3c2C(C)CC3O)CC1)c1ccc(Cl)cc1 (stereo not given) + CCn1c(-c2cc(N3CCN(C)CC3)cnc2C(C)OC)c2c3cc(ccc31)-c1csc(n1)CC(NC(=O)C1CC1C)C(=O)N1CCCC(N1)C(=O)OCC(C)(C)C2	32.8
C[C@@H](NC(=O)c1ncnc(N)c1Cl)c1ncc(C(=O)Nc2cc(C(F)(F)F)c(Cl)cn2)s1 + CCn1c(-c2cc(N3CCN(C)CC3)cnc2C(C)OC)c2c3cc(ccc31)-c1csc(n1)CC(NC(=O)C1CC1C)C(=O)N1CCCC(N1)C(=O)OCC(C)(C)C2	76.1
